I'd appreciate it if you could supply log2 fold change of degron read counts values for the items below.
Target: T1, CRBN, Q96SW2;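 also: pooled lentiviral library of zinc finger degron-EGFP fusions in mCherry-positive Jurkat cells, FACS-sorted after compound exposure, with degron abundance counted by next-generation sequencing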
T1 chain: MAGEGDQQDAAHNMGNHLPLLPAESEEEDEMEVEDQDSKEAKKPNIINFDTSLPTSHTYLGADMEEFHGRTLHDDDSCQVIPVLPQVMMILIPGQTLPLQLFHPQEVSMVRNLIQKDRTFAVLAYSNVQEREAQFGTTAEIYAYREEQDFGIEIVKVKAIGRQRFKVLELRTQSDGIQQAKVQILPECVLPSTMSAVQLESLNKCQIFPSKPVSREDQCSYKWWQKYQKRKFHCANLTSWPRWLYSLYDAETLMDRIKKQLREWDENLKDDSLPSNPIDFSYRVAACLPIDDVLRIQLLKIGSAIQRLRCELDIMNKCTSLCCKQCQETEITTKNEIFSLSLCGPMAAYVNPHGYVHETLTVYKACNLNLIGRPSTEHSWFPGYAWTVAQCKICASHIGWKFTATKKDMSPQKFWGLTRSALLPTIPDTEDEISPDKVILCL
Assay: log2 fold change of degron read counts, EGFP-low vs EGFP+ sorted cells (limma voom), compound-induced degradation; higher = more compound-induced degradation of the degron-EGFP fusion; degrons are variants of IKZF1/3 zinc finger 2; compound dose not given here
Details: Jurkat; 18 h; compound: thalidomide
Over roughly 8,300 sequences, “log2 fold change of degron read counts, EGFP-low vs EGFP+ sorted cells (limma voom), compound-induced degradation” has its median near -1.1; the highest 2% begin near 3.2. What follows is part of a selection rich in the highest values, with near analogues and random picks from the rest.
Give a plain numeric answer without units written out.

Recorded log2 fold change of degron read counts of FHCEVCGAVFTQKGNLLRHIKL [46F_47H_49E_50V_52G_53A_54V_55F_67L_, Q9UKT9] , please. -0.292

Thanks! And FICPICGAIFTQKGNLLRHIKL [46F_47I_49P_50I_52G_53A_54I_55F_67L_, Q9UKT9] ? 1.64

What do you have for FSCDICGACFTQKGNLLRHIKL [46F_47S_49D_50I_52G_53A_54C_55F_67L_, Q9UKT9] ? -0.055

Cool, now FSCEICGREFTQKGNLLRHIKL [46F_47S_49E_50I_52G_53R_54E_55F_67L_, Q9UKT9] -2.01

FTCDICGACFTQKGNLLRHIKL [46F_47T_49D_50I_52G_53A_54C_55F_67L_, Q9UKT9] ? 0.886

Repeat with FQCDICGACFTQKGNLLRHIKL [46F_47Q_49D_50I_52G_53A_54C_55F_67L_, Q9UKT9] 3.3
